Measured composite z-score, listed per entry.
Target: Albumin (Bos taurus)
Experiment: bovine serum albumin binders on microarray, profiling panel, artefact control for SMM control protein annotation, biochemical, small-molecule microarray, Alexa647 label, 635/667 nm fluorescence (AID 1118);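 note: score merges 667 nm emission intensity and signal-to-noise per printed compound spot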
Details: BSA-A647 binding, fluorescence 635 nm, higher = more signal
The response must contain the number and no unit.

Example results:
-- ask Identify the measured composite z-score of "CC(=O)NCCCC[C@@H]1NC(=O)[C@@H]2C[C@H](C(=O)NCCCC[N+](C)(C)C)[C@H](c3ccc(O)cc3)N2C1=O" for Albumin (Bos taurus).
-- reply -0.763

-- ask Given the entry "COCCOC(=O)N1C(=O)[C@@]2(c3cc(C#CC4=CCCCC4)ccc31)[C@H](C(=O)N1CCCCCCC1)[C@H]1C(=O)O[C@H](c3ccccc3)[C@H](c3ccccc3)N1[C@@H]2c1ccc(O)cc1" , what composite z-score was observed with Albumin (Bos taurus)?
-- reply 0.25

-- ask For the record O=C1OCCC/C=C\[C@H]2OC34C=CCN(CCN5CCOCC5)C(=O)[C@H]3N(CCCCCCO)C(=O)[C@@H]4C12 (some centres not stated) , what value of composite z-score is listed for Albumin (Bos taurus)?
-- reply 0.719

-- ask Tell me reported composite z-score for O=C1OCCC=C[C@H]2OC34C=CCN(Cn5nnc6ccccc65)C(=O)[C@H]3N(CCCCCCO)C(=O)[C@@H]4C12 (some centres not stated) , tested with Albumin (Bos taurus).
-- reply -0.587

More entries:
-- ask Item "C=C(/C(=C/C[C@H](OC(C)=O)c1ccccc1OCCO)c1cc(C(=O)OC)ccc1OC)C(C)C" with Albumin (Bos taurus) - composite z-score?
-- reply 0.469

-- ask I'm curious: which composite z-score was measured for "CC(C)C(=C=CC[C@H](O)c1ccc(OCCO)cc1)C[C@H](O)c1ccccn1" tested on Albumin (Bos taurus)?
-- reply 0.449

-- ask composite z-score of "C=C(/C(=C/C[C@@H](OC(C)=O)c1cccc(OCCO)c1)c1cc(C(=O)OC)ccc1OC)C(C)C" on Albumin (Bos taurus)?
-- reply 0.805

====

Target: Follistatin-related protein 3 (Homo sapiens)
Assay: FSTL3 binders on small-molecule microarrays, primary screen, biochemical, small-molecule microarray, 635 nm fluorescence (AID 1105);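 note: score merges emission near 667 nm and signal to noise per printed spot across three slides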
Conditions: FSTL3 binding, higher = more signal
compounds and their reported composite z-score
Lab note: jot down the number only; don't add units.

These solved cases illustrate the format of a correct answer.
-- ask Entry under review: COc1ccc(C(O)C2C=CC3C(=O)N(c4ccccc4)C(=O)C3N2Nc2ccc([N+](=O)[O-])cc2)cc1 (stereo not drawn) . Reported composite z-score?
-- reply 0.952

-- ask So what's the measured composite z-score for this one? "Cc1ccc(S[C@]2(C(=O)O)CC(=O)N(C3Cc4ccccc4C3)[C@@H]2c2ccc(CO)cc2)cc1"
-- reply -0.946

Further cases:
-- ask Quick one: composite z-score for "COc1ccc(C#Cc2ccc3c(c2)[C@]2(C(=O)N3)[C@H](c3ccc(O)cc3)N3[C@H](c4ccccc4)[C@H](c4ccccc4)OC(=O)[C@H]3[C@@H]2C(=O)O)cc1" ?
-- reply -0.114

====

z-score values by entry
Assay: P. aeruginosa biofilm formation inhibitors, primary screen, strain PAO1, LB-PBS medium, absorbance 600 nm (AID 1176); note: test concentration not given here
Conditions: P. aeruginosa PAO1 growth/biofilm, A600, 12 h; higher = more signal
The answer should be written as a number, with no unit following it.

Below: 3 compounds and their reported z-score.
-- ask Endpoint output: z-score of "C=CCNC(=O)[C@@H]1[C@H]2C(=O)O[C@H](c3ccccc3)[C@H](c3ccccc3)N2[C@H](c2ccc(O)cc2)[C@@]12C(=O)N(C(=O)OCCOC)c1ccc(C#CC3(O)CCCCCC3)cc12" . Value?
-- reply -0.123

-- ask Look up z-score: "C=CC[C@]1(C(=O)O)COC(c2ccc(OCCCO)cc2)=N1"
-- reply 0.37

-- ask z-score lookup needed for [N-]=[N+]=NCc1ccccc1[C@@H]1OC(c2ccc(OCCCO)cc2)=N[C@]1(CCS(=O)(=O)c1ccccc1)C(=O)NCC(O)CO (some centres undefined) , thanks.
-- reply 0.563

Let us examine a further case.
-- ask Which z-score is reported for this compound? "C=CC[C@]1(C(=O)NCCN2CCOCC2)N=C(c2ccc(OCCCO)cc2)O[C@H]1c1ccccc1CN=[N+]=[N-]"
-- reply -1.17

====

Listing of recorded composite z-score by entry.
Test: small-molecule microarray binders of probe aLefty2, primary screen, biochemical, biotinylated probe, 635/667 nm fluorescence (AID 1094);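 note: score merges spot fluorescence near 667 nm with spot signal-to-noise ratio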
Details: higher = more signal
API note: the answer field is a bare number with no unit suffix.

-- ask For the compound shown here, "O=C1O[C@H](c2ccccc2)[C@H](c2ccccc2)N2[C@H]1[C@@H](C(=O)Nc1nc3ccccc3s1)[C@]1(C(=O)Nc3ccc(C#CCCO)cc31)[C@H]2c1ccc(O)cc1" , give the reported composite z-score.
-- reply 0.0769

-- ask So what's the measured composite z-score for this one? C=CCC(OC(C)=O)[C@@H]1[C@@H](N(Cc2cc3ccccc3o2)C(=O)c2ccc(C)cc2)c2cc(OCCCO)ccc2N1C(=O)Cc1ccc(OC)cc1 (stereo not given in full)
-- reply 0.0761

-- ask # composite z-score lookup, item "CC(C)C[C@@H]1NC(=O)[C@@H]2C[C@H](C(=O)NCCCCN(C)C)[C@H](c3cccc(OCCO)c3)N2C1=O"
-- reply -0.0258

-- ask Which composite z-score value belongs to "COCCOC(=O)N1C(=O)[C@@]2(c3cc(C#CC4=CCCCC4)ccc31)[C@H](c1ccccc1OCCO)N1[C@H](c3ccccc3)[C@H](c3ccccc3)OC(=O)[C@H]1[C@@H]2C(=O)Nc1nc2ccccc2s1" ?
-- reply 0.0274

Now, please, on to the next compound.
-- ask For the compound shown here, "COC(=O)[C@@]1(Cc2ccc(F)cc2)[C@H]2c3cc(C(=O)N(C)C)n(Cc4cc(F)cc5c4OCOC5)c3C[C@H]2CN1C(=O)c1ccccc1" , give the reported composite z-score.
-- reply 0.44

====

Consider the following compounds and their measured composite z-score readings.
Target: Focal adhesion kinase 1 (Homo sapiens)
Test: small-molecule microarray binders of FAK, primary screen, biochemical, 635/667 nm fluorescence, BSA, DTT (AID 1130);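 note: composite of spot emission at 667 nm and signal to noise over triplicate slides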
Details: PTK2 binding, 635 nm fluorescence, higher = more signal
Number only, please.

Example results:
-- ask Look at this compound and give its reported composite z-score. "COCCOC(=O)N1C(=O)[C@@]2(c3cc(C#Cc4ccc(OC)cc4)ccc31)[C@H](c1ccccc1OCCO)N1[C@H](c3ccccc3)[C@H](c3ccccc3)OC(=O)[C@H]1[C@@H]2C(=O)N1CCCCCCC1"
-- reply 0.701

-- ask Fill blank: measured composite z-score of the compound "CC(C)C(=C=CC[C@H](O)c1cccc(OCCO)c1)C[C@H](O)c1cc(Cl)cc(Cl)c1O" is ____.
-- reply 0.295

-- ask Name the reported composite z-score value associated with the compound "C=CC[C@]1(C(=O)NCCN2CCOCC2)N=C(c2ccc(OCCCO)cc2)O[C@H]1c1ccccc1CN=[N+]=[N-]"
-- reply -0.319

-- ask Dear colleague, I am looking for the recorded composite z-score of the following compound: Cc1cc(C)cc(N2C(=O)CSC2c2cccc([N+](=O)[O-])c2)c1 (stereo not drawn)
-- reply 1.55

-- ask // returns reported composite z-score for input O=C1NC(=O)C2C1C=CC(C(O)c1ccco1)N2Nc1ccccn1 (stereo not drawn)
-- reply -0.429

-- ask Look up composite z-score for this compound: "C=C(C(=O)CC[C@@H](OC(C)=O)c1ccc(CO)o1)C(C)C"
-- reply -0.26

-- ask Param item = "CCCC[C@@H]1C[C@H]1[C@@H](NC(=O)c1cccs1)c1ccc(C(F)(F)F)cc1" ; retrieve measured composite z-score.
-- reply -0.0276

Now for a further compound.
-- ask Entry under review: "C[N+](C)(C)CCCCCCNC(=O)[C@H]1C[C@H]2C(=O)NCC(=O)N2[C@H]1c1ccc(O)cc1" . Reported composite z-score?
-- reply -0.0037

====

Assay: small-molecule microarray binders of probe aLefty2, primary screen, biochemical, biotinylated probe, 635/667 nm fluorescence (AID 1094);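 note: score merges spot fluorescence near 667 nm with spot signal-to-noise ratio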
Details: higher = more signal
Documented composite z-score across a set of molecules
Give only the figure.

-- ask Which composite z-score value belongs to "Cc1ccc(S[C@]2(C(=O)O)CC(=O)N(Cc3cc(C(F)(F)F)cc(C(F)(F)F)c3)[C@@H]2c2ccc(CO)cc2)cc1" ?
-- reply -0.142

-- ask Recorded composite z-score for CC(C)(C)N1CC=CC23O[C@@H]4C=CCOC(=O)[C@@H]4[C@H]2C(=O)N(CCCCCCO)[C@@H]3C1=O (some centres undefined) , please?
-- reply -0.101

-- ask Field request: composite z-score | item: CC(C)(C)N1CC=CC23O[C@@H]4C=CCCOC(=O)C4[C@H]2C(=O)N(CCO)[C@@H]3C1=O (some centres undefined)
-- reply -0.267

-- ask I am curious: what composite z-score value has been reported for CCCCCCCCCCC(O)C1C=CC2C(=O)N(C)C(=O)C2N1Nc1ccc([N+](=O)[O-])cc1[N+](=O)[O-] (centres undefined) ?
-- reply 0.379

-- ask Requested read-out: composite z-score. Entry: "C=CCOC(=O)[C@H]1[C@@H]2C(=O)O[C@@H](c3ccccc3)[C@@H](c3ccccc3)N2[C@@H](c2ccc(OCCOC(=O)[C@H]3C[C@H]4C(=O)N[C@@H](CC(C)C)C(=O)N4[C@H]3c3cccc(OCCO)c3)cc2)[C@]12C(=O)Nc1ccc(I)cc12"
-- reply -0.0416

-- ask State the recorded composite z-score for this entry: CC(CO)N1C(=O)[C@@H]2[C@H]3C(=O)OCC=C[C@H]3OC23C=CCN(C(C)(C)C)C(=O)[C@@H]13 (some centres undefined)
-- reply -0.103

-- ask What value of composite z-score has been reported for the following molecule? "Cc1ccc(S[C@]2(C(=O)O)CC(=O)N(C3Cc4ccccc4C3)[C@@H]2c2ccc(CO)cc2)cc1"
-- reply 0.126

-- ask Field request: composite z-score | item: "COC(=O)[C@@]1(Cc2ccc(F)cc2)[C@H]2c3cc(C(=O)N4CCCC4)n(CCc4ccc(O)c(O)c4)c3C[C@H]2CN1C(=O)c1ccccc1"
-- reply 1.17

Further cases:
-- ask Requested read-out: composite z-score. Entry: "O=C(NCC(F)(F)F)[C@@H]1c2ccccc2C(=O)N(Cc2ccccc2C(F)(F)F)[C@H]1c1ccc(CO)cc1"
-- reply -0.062

-- ask What composite z-score value was documented for this molecule, CCC(CC)C(O)C1C=CC2C(=O)N(c3ccccc3)C(=O)C2N1Nc1ccc(C(C)C)cc1 (centres undefined) ?
-- reply 0.0659

-- ask Entry "CCOC(=O)C[C@H]1[C@H](OC(=O)Cc2ccc3c(c2)OCO3)[C@@H](NC(=O)Cc2ccc(OC)cc2)c2cc(OCCCO)ccc2N1C(=O)c1ccc2ccccc2n1" : reported composite z-score = ?
-- reply -0.137
